Where do the numbers come from? From PubChem BioAssay.

Assay: binders of probe aFSTL3 on microarray, primary screen, stem cell growth factor project, biochemical, small-molecule microarray, fluorescence 635/667 (AID 1064);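 also: measures binding of the biotinylated anti-FSTL3 antibody to printed compounds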
Conditions: higher = more signal
test-readout: composite z-score
Numbers only.

[[record]]
compound = "C[N+](C)(C)CCCCCCNC(=O)[C@H]1C[C@H]2C(=O)N3CCC[C@H]3C(=O)N2[C@H]1c1ccc(O)cc1"
endpoint_value = 0.159

[[record]]
compound = "COc1ccc(C(O)C2C=CC3C(=O)NC(=O)C3N2Nc2ccccn2)cc1OCc1ccccc1 (configuration not stated)"
endpoint_value = -0.202

[[record]]
compound = "Cc1ccc(S[C@]2(C(=O)NCC(C)C)CC(=O)N(Cc3ccccc3Cl)[C@@H]2c2ccc(CO)cc2)cc1"
endpoint_value = 1.27


Batch lookup, composite z-score per entry.
1. CCCN1C(=O)[C@@]2(CCC(=O)OC(C)(C)C)N=C(c3ccc(OCCCO)cc3)O[C@H]2c2ccccc21
2. COCCOC(=O)N1C(=O)[C@@]2(c3cc(C#CCC(C(=O)OC)C(=O)OC)ccc31)[C@H](c1ccc(O)cc1)N1[C@H](c3ccccc3)[C@H](c3ccccc3)OC(=O)[C@H]1[C@@H]2C(N)=O
3. CCCNC(=O)[C@@H]1c2ccccc2C(=O)N(Cc2ccccc2)[C@H]1c1ccc(CO)cc1
4. Cc1ccc(S[C@]2(C(=O)NC3CC3)CC(=O)N(C3CCCCC3)[C@@H]2c2ccc(CO)cc2I)cc1

1. -0.0952
2. -0.239
3. 0.0651
4. -0.208
